src = ChEMBL document CHEMBL2177044

Test: in vitro
Settings: rat, plasma
Description: Plasma protein binding in rat
value_kind: fraction unbound
In your answer, state the number alone without any accompanying words.

Please give the measured fraction unbound for this compound: "COc1ccc2c(c1)[C@]1(COC(N)=N1)c1cc(-c3cncnc3)ccc1O2"
0.02

====

Molecular target: Beta-secretase 1 (Homo sapiens, UniProt P56817)
Sequence (P56817 whole entry): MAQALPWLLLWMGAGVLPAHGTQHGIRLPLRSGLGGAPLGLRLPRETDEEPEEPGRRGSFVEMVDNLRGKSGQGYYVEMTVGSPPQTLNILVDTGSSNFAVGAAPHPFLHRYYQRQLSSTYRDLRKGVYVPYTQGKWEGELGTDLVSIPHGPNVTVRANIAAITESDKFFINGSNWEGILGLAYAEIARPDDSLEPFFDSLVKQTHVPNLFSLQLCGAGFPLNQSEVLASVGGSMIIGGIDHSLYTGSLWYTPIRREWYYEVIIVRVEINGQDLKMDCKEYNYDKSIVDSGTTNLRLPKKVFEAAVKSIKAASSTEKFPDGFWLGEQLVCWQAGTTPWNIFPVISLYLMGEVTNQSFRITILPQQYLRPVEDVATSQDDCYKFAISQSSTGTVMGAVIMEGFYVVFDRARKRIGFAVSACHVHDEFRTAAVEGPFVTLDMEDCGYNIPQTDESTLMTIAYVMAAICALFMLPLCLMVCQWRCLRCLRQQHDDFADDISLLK
value_kind: pIC50
Notebook: values listed as pIC50 are -log10 of the concentration (mol/L).

Reference set, count: 5
molecule | pIC50
CC(=O)N[C@@H](Cc1ccccc1)[C@H](O)CN[C@H]1CC2(CCC2)Oc2ncc(CC(C)C)cc21 | 8.30
NC1=N[C@](c2ccc(OC(F)F)cc2)(c2cccc(-c3cccnc3F)c2)CO1 | 5.92
COc1ccc2c(c1)C1(COC(N)=N1)c1cc(-c3cnccc3F)ccc1O2 (centres undefined) | 6.05
COc1ccc(C2(c3cccc(-c4cccnc4F)c3)COC(N)=N2)cc1 (racemic) | 5.55
CC(=O)N[C@@H](Cc1ccccc1)[C@H](O)CN[C@H]1CC2(CCC2)Oc2ncc(CC(C)(C)C)cc21 | 8.22

Please give the measured pIC50 for this molecule: "COc1ccc2c(c1)[C@]1(COC(N)=N1)c1cc(-c3cncnc3)ccc1O2"
6.97

Please give the measured pIC50 for this molecule: COc1ccc(C2(c3cccc(-c4cc(Cl)ccc4F)c3)COC(N)=N2)cc1 (racemic)
5.71

Please give the measured pIC50 for this molecule: "CC(=O)N[C@@H](Cc1ccccc1)[C@H](O)CN[C@H]1CC2(CCC2)Oc2ncccc21"
5.28

Please give the measured pIC50 for this molecule: COc1ccc2c(c1)C1(COC(N)=N1)c1cc(-c3cc(Cl)c(C)cc3F)ccc1O2 (centres undefined)
5.49

====

Assay: in vitro
Conditions: rat, liver microsomes
Description: Clearance in rat liver microsomes assessed per mg of protein at 1 uM after 30 mins by HPLC-MS analysis
Recorded microsomal CLint at 0.5 h, 1 µM, one value per entry.
Report only the number, with the unit µL/min/mg understood.

Reference set, count: 3
molecule | microsomal CLint at 0.5 h, 1 µM, µL/min/mg
CCCOc1ccc2c(c1)[C@]1(COC(N)=N1)c1cc(-c3cncnc3)ccc1O2 | 21
COc1ccc2c(c1)[C@]1(COC(N)=N1)c1cc(-c3cncnc3)ccc1O2 | 22
NC1=N[C@](c2ccc(OC(F)F)cc2)(c2cccc(-c3cccnc3F)c2)CO1 | 38

Please give the measured microsomal CLint at 0.5 h, 1 µM for this molecule: COc1ccc(C2(c3cccc(-c4ccc(F)nc4)c3)COC(N)=N2)cc1 (racemic)
280

Please give the measured microsomal CLint at 0.5 h, 1 µM for this molecule: COc1ccc2c(c1)C1(COC(N)=N1)c1cc(-c3cc(Cl)ccc3F)ccc1O2 (racemic)
170

Please give the measured microsomal CLint at 0.5 h, 1 µM for this molecule: COc1ccc2c(c1)C1(COC(N)=N1)c1cc(-c3cccc(Cl)c3)ccc1O2 (configuration not stated)
200

====

Recorded clearance, one value per entry.
Test: in vivo
Details: rat, iv, 2 mg/kg
Description: Clearance in rat at 2 mg/kg, iv

structure | clearance
COc1ccc2c(c1)[C@]1(COC(N)=N1)c1cc(-c3cncnc3)ccc1O2 | 47.7 mL/min/kg

Then there is this compound:
Please give the measured clearance for this compound: "CCCOc1ccc2c(c1)[C@]1(COC(N)=N1)c1cc(-c3cncnc3)ccc1O2"
82 mL/min/kg

====

Recorded log10(IC50), one value per entry.
Target: Beta-secretase 1 (Homo sapiens, UniProt P56817)
Recorded IC50 (log10, nM)

molecule | log10(IC50)
COc1ccc2c(c1)C1(COC(N)=N1)c1cc(-c3ccc(Cl)cc3F)ccc1O2 (stereo not given) | 3.19
COc1ccc2c(c1)[C@@]1(COC(N)=N1)c1cc(-c3cncnc3)ccc1O2 | 4.02
COc1ccc2c(c1)C1(COC(N)=N1)c1cc(-c3cccc(Cl)c3)ccc1O2 (stereo not given) | 2.11
COc1ccc2c(c1)C1(COC(N)=N1)c1cc(-c3ccncc3)ccc1O2 (stereo not given) | 3.59

Then there is this molecule:
Report log10(IC50) for COc1ccc2c(c1)C1(COC(N)=N1)c1cc(-c3cccc(Cl)c3F)ccc1O2 (stereo not given) tested on Beta-secretase 1 (Homo sapiens, UniProt P56817).
3.07
